Reported FACS MFI by item:
- tgt: T1, mouse CD276 protein (mouse, UniProt Q8VE98 29-316)
- T1 construct: whole, on cells; also called mCD276; CHO-S-mCD276
- T1 sequence (looked up): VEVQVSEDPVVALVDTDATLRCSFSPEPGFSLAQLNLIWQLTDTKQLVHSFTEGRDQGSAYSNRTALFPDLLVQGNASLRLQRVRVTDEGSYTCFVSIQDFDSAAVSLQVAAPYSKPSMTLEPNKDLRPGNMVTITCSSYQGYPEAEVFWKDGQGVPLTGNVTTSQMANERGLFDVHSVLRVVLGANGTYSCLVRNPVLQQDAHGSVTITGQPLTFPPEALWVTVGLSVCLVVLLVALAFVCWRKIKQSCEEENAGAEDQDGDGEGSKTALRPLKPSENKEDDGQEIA
- assay_comment: FACS on CHO-S-mCD276 cells

| binder | FACS MFI |
| --- | --- |
| 25-C8-D7-C5 (antibody, V domains shown, mouse monoclonal antibody (hybridoma)) VH: EVQLQESGGGLVKPGGSLKFSCAASGFTFSTYAMSWVRQTPEKRLEWVATISGGGIDTYYPDSVKGRFTISRDNAKNTLYLQMNSLRSEDTAMYYCARQGSKGWGAMDYWGQGTSVTVSS VL: QIVLTQSPAIMSASPGEKVTMTCRASSSVSFMHWYQQKSGTSPKRWIYETSKLASGVPDRFSGSGSGTSYSLTISSMEAEDAATYYCQQWSSNPLTFGAGTKLELK | 1160 |
| 22-E11-C3-F2 (antibody, V domains shown, mouse monoclonal antibody (hybridoma)) VH: QIQLVQSGPELKRPGETVKISCKASGYSFTNYGMNWVKQAPGKGLKWMGWINPYTGEPTYADDFKGRFAMSLETSASAAYLQINNLKNEDMATYFCGRDDGYHYTMNYWGQGTSVTVSS VL: DVVMTQPPLSLPVSLGDQASISCRSSQSLIHSNGDTYLHWYLQKPGQSPKLLIYKVSIRFSGVPDRFSGSGSGTDFTLKISRVEAEDLGVYFCSQSTYVPWTFGGGTKLEIK | 1670 |
| 10-G6-C4-B2 (antibody, V domains shown, mouse monoclonal antibody (hybridoma)) VH: EVQLVESGGGLVQPGGSLRLSCATSGFTLSDYYMSWVRQPPGKAPEWLGFMRNKANGYTTEYSASVRGRFTISRDTSQSIIYLQMNTLRAEDGATYYCVRDRDGRPFAYWGQGTLVTVSA VL: DIVMTQSPSSLTVTAGEKVTMSCKSSQSLLNSINQKNFLTWYQQKPGQPPKLLIYWASTRESGVPDRFTGSGSGTDFTLTISSVQAEDLAIYYCQNDYTYPLTFGTGTKLELK | 17400 |
